Data origin, for the record: patent US7321046B2

- Test system: microtubules (tubulin polymer)
- experiment: Radiolabeled ligand binding assays
- conditions_used: test agent 4 μM; radiolabel 4.0 μM; 37° C.
result_type: Percent inhibition of radiolabel from microtubules, [3H]Paclitaxel

Some compounds with recorded Percent inhibition of radiolabel from microtubules, [3H]Paclitaxel:
compound: CC(=O)O[C@@]12CO[C@@H]1C[C@H](O)[C@@]1(C)C(=O)[C@H](O)C3=C(C)[C@@H](OC(=O)[C@H](O)[C@@H](NC(=O)OC(C)(C)C)c4ccccc4)C[C@@](O)([C@@H](OC(=O)c4ccccc4)[C@H]21)C3(C)C
test_value: 63 ± 8 (4) %

compound: C=CC=CC(C)C1OC(=O)C=CC=CC(C)C(O)CC(O)C=CC(C)C(O)C(C)CCCCC(O)C1C (stereo not shown)
test_value: 48 ± 3 (3) %

compound: C=C/C=C\[C@H](C)[C@H](OC(N)=O)[C@@H](C)[C@H](O)[C@@H](C)C/C(C)=C\[C@H](C)[C@@H](O)[C@@H](C)/C=C\[C@@H](O)C[C@@H]1OC(=O)[C@H](C)[C@@H](O)[C@H]1C [discodermolide, reference compound]
test_value: 76 ± 6 (4) %

Now let's try a different one.
*Q* What value of Percent inhibition of radiolabel from microtubules, [3H]Paclitaxel has been reported for the following compound? C=CC=CC(C)C1OC(=O)C=CC=CC(C)C(O)CC(O)C=CC(C)C(O)C(C)CC(C)CCC(O)C1C (stereo not shown) [Compound 109]
*A* 0 ± 1%
